This listing pairs compounds with measured IC50.
molecular target: human SOS1 (loading of human K-Ras^G12C-GDP with fluorescent GTP-analog) (Homo sapiens); test: Biochemical assay 3: K-Ras^G12C activation assay by hSOS1 (HTRF); conditions: no GTP; read-out: Assay 3 (KRAS-Activation by SOS no GTP) activity expressed as IC50

[
  {
    "Compound": "COc1ccc2oc(-c3cccc([C@@H](C)Nc4nc(C)nc5cc(OC)c(OC)cc45)c3)cc2c1 [Example 66]",
    "Units text": "µM",
    "IC50": 6.6
  },
  {
    "Compound": "COc1cc2nc(C)nc(NC(C)c3cc(Br)cs3)c2cc1OC (stereo not shown) [Example 264]",
    "Units text": "µM",
    "IC50": 4.61
  },
  {
    "Compound": "COc1cc2nc(C)nc(NC(C)c3ccc(-c4ccc(Cl)cc4CN(C)C)s3)c2cc1OC (stereo not shown) [Example 323]",
    "Units text": "µM",
    "IC50": 0.0664
  },
  {
    "Compound": "COc1cc2nc(C)nc(N[C@H](C)c3cccc(-c4ccc(C(C)=O)s4)c3)c2cc1OC [Example 95]",
    "Units text": "µM",
    "IC50": 1.08
  }
]
